assay: 384-well plate pilot, post-Golgi transport modulator project, inhibition of yeast transport mutant growth (AID 636); settings: absorbance 615 nm, about 18 h, stronger effect = higher value
For each of the compounds below, state its inhibition.
Dear colleague, please return just the value in %, with no unit written.

Request: Fill in inhibition for record Cc1cc(C(=O)Nc2ccccc2C#N)n(-c2ccccc2)n1
Result: 2.93

Request: State, in one line, measured inhibition of CCc1c(C(=O)N2CCOCC2)csc1C
Result: -3.95

Request: Using the record for Cc1ccc2nc(NCCCN3CCOCC3)c(C=NCCCN3CCOCC3)c(=O)n2c1 , state its measured inhibition.
Result: -0.39

Request: Indicate its recorded inhibition; the compound in question is CC(C)Oc1ccc(N2CC(C(=O)Nc3ccccc3F)CC2=O)cc1 (stereo unspecified)
Result: -1.17

Request: Provide measured inhibition value, entry: CC(=O)Nc1c(-c2ccc(F)cc2)nc2ccccn12
Result: -4.67

Request: Give inhibition for N#CC1=C(N)SC(N)=C(C#N)C1CCc1ccccc1
Result: -2.11

Request: Identify measured inhibition corresponding to COCCOC(=O)C1=C(N)OC2=C(C(=O)CC(C)(C)C2)C1c1cccnc1 (stereo unspecified)
Result: -5.95

Request: Please report the measured inhibition for Cc1ccc(Cn2c(SCC(C)C)nc3c2c(=O)n(C)c(=O)n3C)cc1
Result: -1.84

Request: State its inhibition for this compound: CC(C(=O)NCc1cccnc1)N1C(=O)c2ccccc2C1=O (stereo unspecified)
Result: -3.03

Request: Indicate the recorded inhibition value for this compound: COc1ccc(S(=O)(=O)N2CCOCC2)cc1C(=O)Nc1cc(C)on1
Result: -3.42

Request: Could you please provide reported inhibition for COC(=O)c1cccc(NC(=O)NC2CCCN2S(=O)(=O)c2ccc(Cl)cc2)c1 (stereo unspecified) ? Thanks!
Result: -4.53

* * *

I'd appreciate it if you could supply viability values for the items below.
assay: growth inhibitors of H69AR lung tumor, primary screen, human, duplicate replicates (AID 580); details: H69AR lung tumor cells viability, ATP luminescence, 72 h; at 10 µM; stronger effect = lower value;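 note: 100% = mean luminescence of untreated wells and 0% = no signal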
State the answer as a number, implicitly in %.

Request: Could you please provide reported viability for COc1ccccc1OCCOc1ccccc1/C=N/n1cnnc1 ? Thanks!
Result: 70.9

Request: Tell me its viability given O=C(OCc1nnc(-c2ccccc2)o1)c1ccc2ccccc2n1 as the entry.
Result: 89.4

Request: Determine from records and report viability for COc1ccc(-c2nnc(-c3cccs3)o2)cc1OC
Result: 94.6

Request: Identify measured viability associated with O=C(Nc1ccc(O)cc1)C1CCCN1S(=O)(=O)c1ccc(F)cc1 (stereo not given)
Result: 97.3

Request: Give the value of viability reported for the following: CCC(=O)N1CCc2cc(S(=O)(=O)CCC(=O)Nc3c(C)n(C)n(-c4ccccc4)c3=O)ccc21
Result: 94

Request: Look up and state reported viability for O=C(CCCCCn1c(SCc2ccncc2)nc2ccccc2c1=O)NCc1ccco1
Result: 74.6

Request: Assign viability to the following record: CCN(Cc1nc2ccccc2c(=O)[nH]1)Cc1nc2cc(OC)c(OC)cc2c(=O)[nH]1
Result: 89.8

Request: For the compound CCn1c(=O)c(C(=O)Nc2cccnc2)c(O)c2ccccc21 , report viability.
Result: 67.7

Request: Name the recorded viability of the item CS(=O)(=O)c1ccc2nc(NC(=O)CCC(=O)c3cccs3)sc2c1 in your answer.
Result: 69.8

Request: For the compound CN(C)S(=O)(=O)c1ccc(C(=O)N2CCC(c3nc4ccccc4o3)CC2)cc1 , give its reported viability.
Result: 83
